Source: patent US20160045505A1

system: Leishmania donovani axenic amastigote parasites; assay: Leishmania donovani axenic amastigote proliferation assay (Cell TiterGlo luminescence, 2 day incubation); type: cell-based; conditions: Leishmania donovani, L. donovani axenic amastigotes; read-out: L. donovani amastigotes EC50
Recorded EC50 for the following molecules
Hey, just the number and the unit after it is fine.

>  <Smiles repr>
Cc1nc(C)c(C(=O)Nc2ccc(F)c(-c3cn4cc(NC5=N[C@@H]6CCC[C@H]6O5)cnc4n3)c2)o1

>  <EC50>
1.55 µM

$$$$
>  <Smiles repr>
Cc1nc(C)c(C(=O)Nc2ccc(F)c(-c3cn4cc(-c5cnc(C(C)C)cn5)cnc4n3)c2)o1

>  <EC50>
0.033 µM

$$$$

Proceed to the following item.
*Q* I have this molecule here, CC(C)OC(=O)Nc1cnc2nc(-c3cc(NCC(=O)N4CCCC4)ccc3F)cn2c1 , and I need its recorded EC50.
*A* 9.84 µM
